Values compiled from patent US8785459B2.

- tgt: B-Raf (V600E) (Homo sapiens (Human), UniProt P15056, V600E)
- Sequence (P15056 whole entry V600E): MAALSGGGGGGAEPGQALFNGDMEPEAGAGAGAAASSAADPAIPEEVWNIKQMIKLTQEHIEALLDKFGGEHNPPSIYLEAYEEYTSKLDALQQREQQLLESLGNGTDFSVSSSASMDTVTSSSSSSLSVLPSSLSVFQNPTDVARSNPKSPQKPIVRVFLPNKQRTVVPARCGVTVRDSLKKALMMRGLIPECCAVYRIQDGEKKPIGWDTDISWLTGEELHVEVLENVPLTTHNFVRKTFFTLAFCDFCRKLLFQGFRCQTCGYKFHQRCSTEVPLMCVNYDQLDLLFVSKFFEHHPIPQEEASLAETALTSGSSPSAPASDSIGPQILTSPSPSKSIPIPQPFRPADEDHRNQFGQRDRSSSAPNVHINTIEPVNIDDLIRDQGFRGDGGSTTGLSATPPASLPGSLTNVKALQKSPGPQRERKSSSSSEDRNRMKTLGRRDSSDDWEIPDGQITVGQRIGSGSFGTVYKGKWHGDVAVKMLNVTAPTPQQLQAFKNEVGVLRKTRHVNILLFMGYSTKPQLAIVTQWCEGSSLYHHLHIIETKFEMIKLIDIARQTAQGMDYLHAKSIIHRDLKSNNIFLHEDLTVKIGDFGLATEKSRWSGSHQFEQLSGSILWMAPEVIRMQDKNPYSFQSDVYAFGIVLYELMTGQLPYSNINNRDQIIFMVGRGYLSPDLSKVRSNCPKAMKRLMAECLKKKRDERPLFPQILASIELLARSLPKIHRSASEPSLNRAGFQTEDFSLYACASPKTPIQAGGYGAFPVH
- assay-overview: Raf kinase assay (B-Raf (V600E)), [33P] incorporation into MEK1(K97R)
- Type: biochemical
// reported IC50 per item
Hi! Could you send only the number? It should be in nM, unit omitted.

[
  {
    "smiles-text": "COc1cc2ncnc(Nc3cccc(O)c3)c2cc1-c1ccc(O)cc1",
    "IC50 / nM": 71.6
  },
  {
    "smiles-text": "COc1cc(-c2ccc3ncnc(Nc4ccc(F)c(Cl)c4)c3c2)ccc1O",
    "IC50 / nM": 1090
  },
  {
    "smiles-text": "NS(=O)(=O)c1ccc(-c2ccc3ncnc(Nc4cccc5[nH]ncc45)c3c2)cc1",
    "IC50 / nM": 328
  }
]

Consider the additional molecule presented here.
// IC50 lookup, molecule = CN(C)c1ccc(-c2ccc3ncnc(Nc4cccc5[nH]ncc45)c3c2)cc1 , result: 1010

---

- tgt: UniProt:P15056
- assay-overview: Raf kinase assay (B-Raf), [33P] incorporation into MEK1(K97R)
- Type: biochemical
- settings: 1.0 μM compound; read-out: B-Raf inhibition at 1.0 μM
Rule: met for inhibition at 1 µM not less than 80%, not met for anything less.

Worked set:
[
  {
    "compound": "COc1cc(-c2ccc3ncnc(Nc4ccc(F)c(O)c4)c3c2)ccc1O [Compound 161]",
    "tgt": "UniProt:P15056",
    "qualitative-label": "met"
  },
  {
    "compound": "Oc1ccc(-c2ccc3ncnc(Nc4cccc(O)c4)c3c2)cc1 [Compound 62]",
    "tgt": "UniProt:P15056",
    "qualitative-label": "met"
  },
  {
    "compound": "COc1cc(-c2ccc3ncnc(Nc4ccc(C)c(O)c4)c3c2)ccc1O [Compound 29]",
    "tgt": "UniProt:P15056",
    "qualitative-label": "met"
  }
]

Qu. In plain terms: is recorded inhibition at 1 µM at least 80% for COc1cc(-c2ccc3ncnc(Nc4cccc5[nH]nnc45)c3c2)ccc1O [Compound 82] ?
Ans. not met

Qu. In plain terms: is recorded inhibition at 1 µM at least 80% for COc1ccc(-c2ccc3ncnc(Nc4cccc5[nH]ncc45)c3c2)cc1F [Compound 75] ?
Ans. met

Qu. In plain terms: is recorded inhibition at 1 µM at least 80% for CCCS(=O)(=O)Nc1cccc(-c2ccc3ncnc(Nc4cccc5[nH]ncc45)c3c2)c1 [Compound 109] ?
Ans. met

Qu. In plain terms: is recorded inhibition at 1 µM at least 80% for CS(=O)(=O)Nc1ccc(-c2ccc3ncnc(Nc4cccc5[nH]ncc45)c3c2)cc1 [Compound 73] ?
Ans. not met

Qu. In plain terms: is recorded inhibition at 1 µM at least 80% for COc1cc(-c2ccc3ncnc(Nc4cc(O)c(Cl)cc4F)c3c2)ccc1O [Compound 159] ?
Ans. met

Qu. In plain terms: is recorded inhibition at 1 µM at least 80% for COc1ccc(Nc2ncnc3ccc(-c4ccc(O)c(OC)c4)cc23)cc1O [Compound 25] ?
Ans. not met

---

// reported IC50 per item
- tgt: B-Raf (Homo sapiens (Human), UniProt P15056)
- Sequence (P15056 whole entry): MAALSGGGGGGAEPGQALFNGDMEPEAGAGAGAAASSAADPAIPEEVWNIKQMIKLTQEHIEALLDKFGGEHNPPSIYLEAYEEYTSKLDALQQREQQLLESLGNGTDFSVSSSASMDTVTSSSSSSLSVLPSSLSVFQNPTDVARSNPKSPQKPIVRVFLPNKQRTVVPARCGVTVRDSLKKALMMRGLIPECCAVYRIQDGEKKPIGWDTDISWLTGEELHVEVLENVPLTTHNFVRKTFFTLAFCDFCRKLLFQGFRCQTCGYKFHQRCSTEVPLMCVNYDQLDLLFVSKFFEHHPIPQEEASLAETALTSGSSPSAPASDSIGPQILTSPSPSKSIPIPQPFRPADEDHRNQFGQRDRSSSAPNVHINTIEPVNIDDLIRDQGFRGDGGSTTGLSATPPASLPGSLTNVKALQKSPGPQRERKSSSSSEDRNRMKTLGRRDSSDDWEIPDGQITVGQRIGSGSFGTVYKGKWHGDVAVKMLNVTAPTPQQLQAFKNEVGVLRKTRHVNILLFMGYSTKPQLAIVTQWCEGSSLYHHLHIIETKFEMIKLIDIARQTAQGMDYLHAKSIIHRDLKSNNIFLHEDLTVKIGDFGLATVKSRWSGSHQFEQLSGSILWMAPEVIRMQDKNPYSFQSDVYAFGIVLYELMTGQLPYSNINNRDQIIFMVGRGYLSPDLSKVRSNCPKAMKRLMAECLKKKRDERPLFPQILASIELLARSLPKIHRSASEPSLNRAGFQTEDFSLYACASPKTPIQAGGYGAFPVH
- assay-overview: Raf kinase assay (B-Raf), [33P] incorporation into MEK1(K97R)
- Format: biochemical
Hi! Could you send only the number? It should be in nM, unit omitted.

Some solved cases for reference:
[
  {
    "compound": "COc1cccc(-c2ccc3nccc(Nc4cccc5[nH]ncc45)c3c2)c1F",
    "result-type": "IC50",
    "measurement": 83.4
  },
  {
    "compound": "COc1cc(-c2ccc3ncnc(Nc4ccc(S(N)(=O)=O)cc4)c3c2)ccc1O",
    "result-type": "IC50",
    "measurement": 624
  },
  {
    "compound": "COc1cc(-c2ccc3ncnc(Nc4cc(O)c(C)cc4F)c3c2)ccc1O",
    "result-type": "IC50",
    "measurement": 57.3
  },
  {
    "compound": "COc1cc(-c2ccc3ncnc(Nc4ccc5cn[nH]c5c4)c3c2)ccc1O",
    "result-type": "IC50",
    "measurement": 1030
  },
  {
    "compound": "COc1cccc(-c2ccc3ncnc(Nc4cccc5[nH]ncc45)c3c2)c1F",
    "result-type": "IC50",
    "measurement": 114
  }
]

// IC50 lookup, compound = COc1cc(-c2cc3c(Nc4cccc(O)c4)ncnc3cc2OC)ccc1O , result: 87

// IC50 lookup, compound = N#Cc1cccc(-c2ccc3nccc(Nc4cccc5[nH]ncc45)c3c2)c1 , result: 99.2

// IC50 lookup, compound = COc1cc(-c2ccc3ncnc(Nc4cccc(O)c4Cl)c3c2)ccc1O , result: 39

// IC50 lookup, compound = Nc1ccc(F)c(-c2ccc3nccc(Nc4cccc5[nH]ncc45)c3c2)c1 , result: 149

// IC50 lookup, compound = NC(=O)c1cccc(-c2ccc3ncnc(Nc4cccc5[nH]ncc45)c3c2)c1 , result: 112

// IC50 lookup, compound = c1ccc(-c2ccc3ncnc(Nc4cccc5[nH]ncc45)c3c2)cc1 , result: 201

// IC50 lookup, compound = COc1cc(-c2ccc3ncnc(Nc4cccc5[nH]c(=O)[nH]c45)c3c2)ccc1O , result: 888

// IC50 lookup, compound = COc1cc(-c2ccc3ncnc(Nc4cccc5[nH]ncc45)c3c2)ccc1F , result: 172

// IC50 lookup, compound = COc1cc(-c2ccc3ncnc(Nc4cc(O)c(Cl)cc4Cl)c3c2)ccc1O , result: 40.1

// IC50 lookup, compound = O=[N+]([O-])c1cccc(-c2ccc3ncnc(Nc4cccc5[nH]ncc45)c3c2)c1 , result: 428

// IC50 lookup, compound = COc1cc(-c2ccc3ncnc(Nc4cc(O)ccc4Cl)c3c2)ccc1O , result: 36.5

// IC50 lookup, compound = COc1cc(-c2ccc3ncnc(Nc4ccc(F)c(O)c4)c3c2)ccc1O , result: 16.9

// IC50 lookup, compound = COc1cc(-c2ccc3ncnc(Nc4cccc5[nH]ncc45)c3c2)ccc1O , result: 121

// IC50 lookup, compound = COc1cc(-c2ccc3nccc(Nc4cccc(O)c4)c3c2)ccc1O , result: 21

// IC50 lookup, compound = CCOc1ccc(-c2ccc3ncnc(Nc4cccc5[nH]ncc45)c3c2)cc1 , result: 347

// IC50 lookup, compound = COc1cc(-c2ccc3ncnc(Nc4cccc(S(N)(=O)=O)c4)c3c2)ccc1O , result: 415

// IC50 lookup, compound = COc1cc(-c2ccc3ncnc(Nc4ccc5[nH]nnc5c4)c3c2)ccc1O , result: 1010

// IC50 lookup, compound = COc1ccc(-c2ccc3nccc(Nc4cccc5[nH]ncc45)c3c2)cc1Cl , result: 267

// IC50 lookup, compound = COc1cccc(-c2ccc3nccc(Nc4cccc5[nH]ncc45)c3c2)c1 [Compound 123] , result: 231

// IC50 lookup, compound = NS(=O)(=O)c1ccc(-c2ccc3ncnc(Nc4cccc5[nH]ncc45)c3c2)cc1 , result: 345

// IC50 lookup, compound = COc1cc(-c2ccc3ncnc(Nc4ccc5nc[nH]c5c4)c3c2)ccc1O , result: 735

// IC50 lookup, compound = COc1cc(-c2ccc3ncnc(Nc4c(F)cccc4F)c3c2)ccc1O , result: 760

// IC50 lookup, compound = COc1cc(-c2ccc3ncnc(Nc4cc(O)c(F)cc4F)c3c2)ccc1O , result: 3.8

// IC50 lookup, compound = Oc1cc(Nc2ncnc3ccc(-c4ccc(Cl)cc4)cc23)c(F)cc1F , result: 8.9

// IC50 lookup, compound = COc1cc(-c2ccc3ncnc(Nc4ccc(C)cc4F)c3c2)ccc1O , result: 647

---

- System: COLO205
- assay-overview: Anti-proliferative activity, CellTiter-96 assay, COLO205
- Format: cell-based
- settings: Homo sapiens, COLO 205, COLO205 cells, 72 hours incubation
result-type: IC50 (µM)
Hi! Could you send only the number? It should be in µM, unit omitted.

// IC50 lookup, molecule = Oc1c(F)ccc(Nc2ncnc3ccc(-c4ccc5[nH]ncc5c4)cc23)c1F , result: 15.7

// IC50 lookup, molecule = NC(=O)c1cccc(-c2ccc3nccc(Nc4cccc5[nH]ncc45)c3c2)c1 , result: 8.9

// IC50 lookup, molecule = Oc1cccc(Nc2ncnc3ccc(-c4ccccc4)cc23)c1 , result: 11.5

// IC50 lookup, molecule = Oc1cccc(Nc2ncnc3ccc(-c4cccc(O)c4)cc23)c1 , result: 7.1

// IC50 lookup, molecule = COc1ccc(-c2ccc3ncnc(Nc4cccc5[nH]ncc45)c3c2)cc1F , result: 18.5

// IC50 lookup, molecule = COc1cc(-c2ccc3ncnc(Nc4cc(O)ccc4F)c3c2)ccc1O , result: 3.2

// IC50 lookup, molecule = COc1ccc(-c2ccc3nccc(Nc4cccc5[nH]ncc45)c3c2)cc1C=O , result: 6.3

// IC50 lookup, molecule = Fc1ccc(-c2ccc3ncnc(Nc4cccc5[nH]ncc45)c3c2)cc1F , result: 15.9
